biological target: 5-hydroxytryptamine receptor 2B (Homo sapiens, UniProt P41595); assay: Agonist activity at human 5HT2B receptor expressed in HEK293 cells at 10 uM assessed as calcium flux by FLIPR assay relative to serotonin; type: functional, cell-based
Sequence (P41595 whole entry): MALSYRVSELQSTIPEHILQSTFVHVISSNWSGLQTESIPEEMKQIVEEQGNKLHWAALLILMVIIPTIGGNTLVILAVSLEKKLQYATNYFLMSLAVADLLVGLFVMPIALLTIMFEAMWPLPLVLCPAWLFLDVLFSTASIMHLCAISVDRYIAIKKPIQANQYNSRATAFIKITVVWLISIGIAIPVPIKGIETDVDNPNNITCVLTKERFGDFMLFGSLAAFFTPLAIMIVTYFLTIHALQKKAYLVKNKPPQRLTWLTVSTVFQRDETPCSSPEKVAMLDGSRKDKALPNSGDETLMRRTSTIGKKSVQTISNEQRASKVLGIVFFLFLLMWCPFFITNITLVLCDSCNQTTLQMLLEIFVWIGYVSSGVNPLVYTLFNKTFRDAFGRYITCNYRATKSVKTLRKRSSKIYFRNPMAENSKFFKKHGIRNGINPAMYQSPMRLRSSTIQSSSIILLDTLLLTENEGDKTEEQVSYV
Under this convention, true (1) denotes Emax strictly below 90% and false (0) denotes Emax at or above 90%.

compound	group label
Cc1ccc([C@H]2C[C@@H]2CN)cc1C (relative stereo)	true (1)
NC[C@@H]1C[C@H]1c1ccccc1Br	false (0)
NC[C@H]1C[C@@H]1c1ccccc1F (relative stereo)	true (1)
NC[C@@H]1C[C@H]1c1ccccc1Br (relative stereo)	true (1)
NC[C@H]1C[C@@H]1c1ccc(O)cc1 (relative stereo)	true (1)
Cc1ccccc1[C@H]1C[C@@H]1CN (relative stereo)	true (1)

----------
pKi: −log10 of the molar value.
Quick record of pKi values for Sodium-dependent noradrenaline transporter (Homo sapiens, UniProt P23975).

compound	inequality symbol	pKi
NC[C@H]1C[C@@H]1c1ccccc1Br	=	5.47
NC[C@@H]1C[C@H]1c1ccccc1Br (relative stereo)	=	5.56
C[C@H]1CNCCc2ccc(Cl)cc21 [LORCASERIN]	<	5.00

----------
compounds and their reported Emax
molecular target: UniProt:P28335; test: Agonist activity at human 5HT2C receptor expressed in HEK293 cells at 10 uM assessed as calcium flux by FLIPR assay relative to serotonin; format: functional, cell-based

compound	Emax / %
C#Cc1cccc([C@H]2C[C@@H]2CN)c1 (relative stereo)	91
COc1ccccc1[C@H]1C[C@@H]1CN (relative stereo)	93
NC[C@H]1C[C@@H]1c1ccccc1C#CCCCCO (relative stereo)	88
NC[C@H]1C[C@@H]1c1cccc(-c2cc3ccccc3o2)c1 (relative stereo)	39
CNC[C@H]1C[C@@H]1c1ccccc1 (racemic)	101

----------
target: 5-hydroxytryptamine receptor 2C (Homo sapiens) (UniProt P28335); assay: Agonist activity at human 5HT2C receptor expressed in HEK293 cells at 10 uM assessed as calcium flux by FLIPR assay relative to serotonin; type: functional, cell-based
Sequence (P28335 whole entry): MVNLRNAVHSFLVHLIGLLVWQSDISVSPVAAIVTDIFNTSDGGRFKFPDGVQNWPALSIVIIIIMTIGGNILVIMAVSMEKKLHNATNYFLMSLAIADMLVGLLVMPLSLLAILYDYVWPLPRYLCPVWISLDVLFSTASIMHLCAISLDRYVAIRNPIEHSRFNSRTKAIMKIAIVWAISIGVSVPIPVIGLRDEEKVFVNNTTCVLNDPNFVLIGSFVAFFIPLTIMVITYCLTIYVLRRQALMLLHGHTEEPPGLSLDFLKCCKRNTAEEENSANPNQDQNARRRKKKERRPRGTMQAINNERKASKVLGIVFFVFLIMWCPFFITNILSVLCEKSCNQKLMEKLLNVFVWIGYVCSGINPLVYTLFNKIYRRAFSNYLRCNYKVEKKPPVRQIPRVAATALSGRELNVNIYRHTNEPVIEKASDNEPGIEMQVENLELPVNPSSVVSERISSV
// label = yes if Emax is not less than 90%, otherwise no

molecule	experimental system	group label
NC[C@H]1C[C@@H]1c1ccc(F)cc1Cl (relative stereo)	5-hydroxytryptamine receptor 2C (Homo sapiens) (UniProt P28335)	yes
NC[C@H]1C[C@@H]1c1ccccc1O (relative stereo)	5-hydroxytryptamine receptor 2C (Homo sapiens) (UniProt P28335)	yes
N#Cc1ccc(-c2cccc([C@H]3C[C@@H]3CN)c2)cc1 (relative stereo)	5-hydroxytryptamine receptor 2C (Homo sapiens) (UniProt P28335)	no
NC[C@H]1C[C@@H]1c1cccc(Cl)c1 (relative stereo)	5-hydroxytryptamine receptor 2C (Homo sapiens) (UniProt P28335)	yes
NC[C@H]1C[C@@H]1c1cccc(-c2ccc(Cl)cc2)c1 (relative stereo)	5-hydroxytryptamine receptor 2C (Homo sapiens) (UniProt P28335)	no
Cc1cccc([C@H]2C[C@@H]2CN)c1.Cl (relative stereo)	5-hydroxytryptamine receptor 2C (Homo sapiens) (UniProt P28335)	yes
NC[C@H]1C[C@@H]1c1cccc(-c2ccc(C(F)(F)F)cc2)c1 (relative stereo)	5-hydroxytryptamine receptor 2C (Homo sapiens) (UniProt P28335)	no
NC[C@H]1C[C@@H]1c1ccc(Cl)cc1F (relative stereo)	5-hydroxytryptamine receptor 2C (Homo sapiens) (UniProt P28335)	yes
NC[C@H]1C[C@@H]1c1ccc(Cl)cc1Cl (relative stereo)	5-hydroxytryptamine receptor 2C (Homo sapiens) (UniProt P28335)	yes
COc1ccc([C@H]2C[C@@H]2CN)cc1 (relative stereo)	5-hydroxytryptamine receptor 2C (Homo sapiens) (UniProt P28335)	no
Cc1ccccc1[C@H]1C[C@@H]1CN (relative stereo)	5-hydroxytryptamine receptor 2C (Homo sapiens) (UniProt P28335)	yes
NC[C@@H]1C[C@H]1c1ccccc1	5-hydroxytryptamine receptor 2C (Homo sapiens) (UniProt P28335)	yes
NC[C@H]1C[C@@H]1c1cccc(O)c1 (relative stereo)	5-hydroxytryptamine receptor 2C (Homo sapiens) (UniProt P28335)	yes
CC(=O)Nc1cccc([C@H]2C[C@@H]2CN)c1 (relative stereo)	5-hydroxytryptamine receptor 2C (Homo sapiens) (UniProt P28335)	no
c1ccc(CN[C@H]2C[C@@H]2c2ccccc2)cc1 (racemic)	5-hydroxytryptamine receptor 2C (Homo sapiens) (UniProt P28335)	no
COc1cccc([C@H]2C[C@@H]2CN)c1 (relative stereo)	5-hydroxytryptamine receptor 2C (Homo sapiens) (UniProt P28335)	yes
NC[C@H]1C[C@@H]1c1ccccc1Cl (relative stereo)	5-hydroxytryptamine receptor 2C (Homo sapiens) (UniProt P28335)	yes
NC[C@H]1C[C@@H]1c1ccc(F)cc1 (relative stereo)	5-hydroxytryptamine receptor 2C (Homo sapiens) (UniProt P28335)	yes
NC[C@H]1C[C@@H]1c1ccc(C#CCCCCO)cc1 (relative stereo)	5-hydroxytryptamine receptor 2C (Homo sapiens) (UniProt P28335)	no
Cc1ccc([C@H]2C[C@@H]2CN)c(Br)c1 (relative stereo)	5-hydroxytryptamine receptor 2C (Homo sapiens) (UniProt P28335)	no
Cc1ccc(Cl)c([C@H]2C[C@@H]2CN)c1F (relative stereo)	5-hydroxytryptamine receptor 2C (Homo sapiens) (UniProt P28335)	yes
CN(C)[C@H]1C[C@@H]1c1ccccc1 (racemic)	5-hydroxytryptamine receptor 2C (Homo sapiens) (UniProt P28335)	no
Cc1cccc([C@H]2C[C@@H]2CN)c1C (relative stereo)	5-hydroxytryptamine receptor 2C (Homo sapiens) (UniProt P28335)	yes
NC[C@H]1C[C@@H]1c1ccc(-c2ccco2)cc1 (relative stereo)	5-hydroxytryptamine receptor 2C (Homo sapiens) (UniProt P28335)	no
c1ccc(CNC[C@H]2C[C@@H]2c2ccccc2)cc1 (racemic)	5-hydroxytryptamine receptor 2C (Homo sapiens) (UniProt P28335)	yes
NC[C@H]1C[C@@H]1c1ccc(F)c(F)c1 (relative stereo)	5-hydroxytryptamine receptor 2C (Homo sapiens) (UniProt P28335)	yes
NC[C@H]1C[C@@H]1c1ccccc1NC(=O)c1ccccc1 (relative stereo)	5-hydroxytryptamine receptor 2C (Homo sapiens) (UniProt P28335)	no
NC[C@H]1C[C@@H]1c1ccc2ccccc2c1 (relative stereo)	5-hydroxytryptamine receptor 2C (Homo sapiens) (UniProt P28335)	no
NC[C@H]1C[C@@H]1c1cccc(Cl)c1Cl (relative stereo)	5-hydroxytryptamine receptor 2C (Homo sapiens) (UniProt P28335)	yes
Cc1ccc([C@H]2C[C@@H]2CN)cc1C (relative stereo)	5-hydroxytryptamine receptor 2C (Homo sapiens) (UniProt P28335)	yes
